target: BRAF G466V (Homo sapiens, UniProt P15056, G466V); construct: expressed in transfected cells; assay: Cellular assay of target protein degradation, T-Rex 293 cells stably transfected with HA-BRAF G466V (HA immunofluorescence, high content imaging); assay type: cell-based; details: half maximal degradation, T-Rex 293 HA-BRAF G466V; read-out: BRaf G466V DC50
Sequence (P15056 whole entry G466V): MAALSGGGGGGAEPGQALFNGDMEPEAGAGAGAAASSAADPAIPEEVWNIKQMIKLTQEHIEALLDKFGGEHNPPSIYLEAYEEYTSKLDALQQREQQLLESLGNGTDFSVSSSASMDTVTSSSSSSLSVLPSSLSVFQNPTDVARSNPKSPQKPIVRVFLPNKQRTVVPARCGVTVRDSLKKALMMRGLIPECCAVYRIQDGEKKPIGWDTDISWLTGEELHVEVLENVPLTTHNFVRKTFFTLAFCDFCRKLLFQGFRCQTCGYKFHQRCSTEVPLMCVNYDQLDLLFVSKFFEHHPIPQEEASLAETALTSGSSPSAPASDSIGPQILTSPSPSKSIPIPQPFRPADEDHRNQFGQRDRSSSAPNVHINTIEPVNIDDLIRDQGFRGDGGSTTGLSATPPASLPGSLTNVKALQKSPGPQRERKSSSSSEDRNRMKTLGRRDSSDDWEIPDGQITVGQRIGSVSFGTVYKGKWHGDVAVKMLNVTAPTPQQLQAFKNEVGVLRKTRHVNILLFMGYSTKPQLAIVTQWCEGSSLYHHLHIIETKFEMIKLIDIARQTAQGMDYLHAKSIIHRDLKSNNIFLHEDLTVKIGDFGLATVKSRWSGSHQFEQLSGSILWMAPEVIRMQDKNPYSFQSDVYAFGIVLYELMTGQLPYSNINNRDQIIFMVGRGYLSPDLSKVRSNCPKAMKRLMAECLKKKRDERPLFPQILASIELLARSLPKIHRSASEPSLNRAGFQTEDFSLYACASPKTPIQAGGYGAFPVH

[
  {
    "MOLECULE": "O=C1CC[C@@H](N2Cc3cc(N4CC[C@@H](COc5ccc(-c6cnc7[nH]cc(C(=O)c8c(F)ccc(NS(=O)(=O)N9CC[C@@H](F)C9)c8F)c7c6)cc5)C4)ccc3C2=O)C(=O)N1",
    "DC50": "> 30 nM"
  },
  {
    "MOLECULE": "O=C1CC[C@H](NC(=O)c2ccc(N3CC4(CN(CCc5ccc(-c6cnc7[nH]cc(C(=O)c8c(F)ccc(NS(=O)(=O)N9CC[C@@H](F)C9)c8F)c7c6)cc5)C4)C3)cc2F)C(=O)N1",
    "DC50": "1 to 10 nM"
  },
  {
    "MOLECULE": "O=C1CCC(N2Cc3cc(N4CCC5(CCN(CCc6ccc(-c7cnc8[nH]cc(C(=O)c9c(F)ccc(NS(=O)(=O)N%10CC[C@@H](F)C%10)c9F)c8c7)cc6)CC5)C4)ccc3C2=O)C(=O)N1 (stereo partly drawn)",
    "DC50": "< 1 nM"
  },
  {
    "MOLECULE": "O=C1CC[C@H](NC(=O)c2ccc(CCCN3CC4(C3)CN(c3ccc(-c5cnc6[nH]cc(C(=O)c7c(F)ccc(NS(=O)(=O)N8CC[C@@H](F)C8)c7F)c6c5)cc3)C4)cc2F)C(=O)N1",
    "DC50": "> 30 nM"
  },
  {
    "MOLECULE": "COc1cc(N2CC3(CN(CC4CCN(c5ncc(-c6cnc7[nH]cc(C(=O)c8c(F)ccc(NS(=O)(=O)N9CC[C@@H](F)C9)c8F)c7c6)cn5)CC4)C3)C2)cc2c1C(=O)N(C1CCC(=O)NC1=O)C2 (stereo partly drawn)",
    "DC50": "< 1 nM"
  },
  {
    "MOLECULE": "COc1c(NS(=O)(=O)N2CC[C@@H](F)C2)ccc(F)c1C(=O)c1c[nH]c2ncc(-c3ccc(N4CCC(CN5CCC(c6ccc7c(c6)CN(C6CCC(=O)NC6=O)C7=O)CC5)CC4)cc3)cc12 (stereo partly drawn)",
    "DC50": "1 to 10 nM"
  },
  {
    "MOLECULE": "CCc1c(NS(=O)(=O)N2CC[C@@H](F)C2)ccc(F)c1C(=O)c1c[nH]c2ncc(-c3ccc(N4CCC(CN5CCC(c6ccc7c(c6)CN(C6CCC(=O)NC6=O)C7=O)CC5)CC4)cc3)cc12 (stereo partly drawn)",
    "DC50": "< 1 nM"
  },
  {
    "MOLECULE": "O=C1CC[C@H](NC(=O)N2CCCc3c(N4CCC(CN5CCN(c6ccc(-c7cnc8[nH]cc(C(=O)c9c(F)ccc(NS(=O)(=O)N%10CC[C@@H](F)C%10)c9F)c8c7)cc6)CC5)CC4)ccnc32)C(=O)N1",
    "DC50": "1 to 10 nM"
  },
  {
    "MOLECULE": "O=C1CCC(N2Cc3cc(CN4CCN(c5ccc(-c6cnc7[nH]cc(C(=O)c8c(F)ccc(NS(=O)(=O)N9CC[C@@H](F)C9)c8F)c7c6)cc5)C[C@@H]4CO)ccc3C2=O)C(=O)N1 (stereo partly drawn)",
    "DC50": "> 30 nM"
  }
]

Hey, just so you know, these numbers are from patent US12180193B2.
